measured-on: IKKe (Homo sapiens (Human), UniProt Q14164)
Sequence (Q14164 whole entry, species assumed): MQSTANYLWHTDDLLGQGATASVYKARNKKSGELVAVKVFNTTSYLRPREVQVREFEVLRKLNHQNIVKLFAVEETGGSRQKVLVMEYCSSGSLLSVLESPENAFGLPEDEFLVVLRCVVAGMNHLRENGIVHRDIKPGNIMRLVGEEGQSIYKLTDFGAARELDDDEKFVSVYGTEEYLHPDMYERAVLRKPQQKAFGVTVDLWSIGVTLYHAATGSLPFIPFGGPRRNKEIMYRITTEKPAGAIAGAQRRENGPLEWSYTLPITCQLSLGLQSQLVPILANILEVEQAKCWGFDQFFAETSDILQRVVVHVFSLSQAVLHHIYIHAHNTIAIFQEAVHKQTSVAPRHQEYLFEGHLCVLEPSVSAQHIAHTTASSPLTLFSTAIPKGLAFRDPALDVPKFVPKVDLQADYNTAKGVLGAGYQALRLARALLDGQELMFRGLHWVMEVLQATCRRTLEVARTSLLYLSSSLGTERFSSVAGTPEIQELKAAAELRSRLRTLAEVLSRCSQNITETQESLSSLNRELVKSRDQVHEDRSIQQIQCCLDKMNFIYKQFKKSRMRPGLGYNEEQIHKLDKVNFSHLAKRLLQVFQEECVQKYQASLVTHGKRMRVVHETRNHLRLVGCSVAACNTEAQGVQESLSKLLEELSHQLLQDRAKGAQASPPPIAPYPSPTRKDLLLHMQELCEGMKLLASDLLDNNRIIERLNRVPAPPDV
Readings of IC50 for the listed molecules
outcome-measure: IC50

- molecule: "COc1nc(Nc2cc(-c3ccc(OC4CCN(C(=O)CO)CC4)c(C#N)c3)ncn2)ccc1C(=O)N(C)C"
  result: "< 100 nM"
- molecule: "COc1nc(Nc2cc(-c3ccc(O[C@H]4CCNC[C@H]4F)c(C#N)c3)ncn2)ccc1C(=O)N(C)C"
  result: "100 to 1000 nM"
- molecule: "COc1nc(Nc2cc(-c3ccc(OC4CCN(C)C4)c(C#N)c3)ncn2)ccc1C(=O)N(C)C (stereo not shown)"
  result: "100 to 1000 nM"
- molecule: "COc1nc(Nc2cc(-c3ccc(O[C@H]4CCN(C(=O)c5cnn[nH]5)C[C@H]4F)c(C#N)c3)ncn2)ccc1N1CCN(C)CC1"
  result: "< 100 nM"
